- System tested: Flt-3 (baculovirus expressed human Flt-3 kinase domain R571-S993) (Homo sapiens)
- Construct: human Flt-3 kinase domain R571-S993; host or cells: baculovirus expression
- Test name: biochemical
- Test context: Table 4, inhibition as IC50 class; read-out: flt3 IC50
Assay metric: IC50

Molecule	Result
COc1cc2c(Oc3ccc(NC(=O)C(=O)Nc4ccc(F)c(Cl)c4)cc3F)ccnc2cc1OCC1CCNCC1	50 to 500 nM
CCN1CCC(COc2cc3nccc(Oc4ccc(NC(=O)C(=O)N5CCOC(c6ccccc6)C5)cc4F)c3cc2OC)CC1 (stereo not shown)	50 to 500 nM
COc1cc2c(Oc3ccc(NC(=O)C(=O)NCc4c(F)cccc4F)cc3F)ccnc2cc1OCC1CCNCC1	50 to 500 nM

Query :: Form field - read-out: IC50; system: Flt-3 (baculovirus expressed human Flt-3 kinase domain R571-S993) (Homo sapiens); submitted item: COc1ccccc1CNC(=O)C(=O)Nc1ccc(Oc2ccnc3cc(OCC4CCNCC4)c(OC)cc23)c(F)c1
Result :: < 50 nM

Query :: // next record COc1cc2c(Oc3ccc(NC(=O)C(=O)NCCc4ccccc4)cc3F)ccnc2cc1OCC1CN(C)C1
Result :: < 50 nM

Query :: Can you handle COc1cc2c(Oc3ccc(NC(=O)C(=O)NCc4cccc(C(F)(F)F)c4)cc3F)ccnc2cc1OCC1CCNCC1 next?
Result :: < 50 nM

Query :: Next up: COc1cc2c(Oc3ccc(NC(=O)C(=O)NC4CCCC4)cc3F)ccnc2cc1OCC1CCNCC1
Result :: 50 to 500 nM

* * *

- System tested: KDR (baculovirus expressed human KDR kinase domain D807-V1356) (Homo sapiens, UniProt P35968);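 also: Luciferase-coupled chemiluminescent kinase assay, activity read as percent ATP left after 4 h reaction at ambient temperature, ATP near KM, 10-point dose-response in 384-well plates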
- Construct: human KDR kinase domain D807-V1356; host or cells: baculovirus expression
- Sequence (P35968 807-1356): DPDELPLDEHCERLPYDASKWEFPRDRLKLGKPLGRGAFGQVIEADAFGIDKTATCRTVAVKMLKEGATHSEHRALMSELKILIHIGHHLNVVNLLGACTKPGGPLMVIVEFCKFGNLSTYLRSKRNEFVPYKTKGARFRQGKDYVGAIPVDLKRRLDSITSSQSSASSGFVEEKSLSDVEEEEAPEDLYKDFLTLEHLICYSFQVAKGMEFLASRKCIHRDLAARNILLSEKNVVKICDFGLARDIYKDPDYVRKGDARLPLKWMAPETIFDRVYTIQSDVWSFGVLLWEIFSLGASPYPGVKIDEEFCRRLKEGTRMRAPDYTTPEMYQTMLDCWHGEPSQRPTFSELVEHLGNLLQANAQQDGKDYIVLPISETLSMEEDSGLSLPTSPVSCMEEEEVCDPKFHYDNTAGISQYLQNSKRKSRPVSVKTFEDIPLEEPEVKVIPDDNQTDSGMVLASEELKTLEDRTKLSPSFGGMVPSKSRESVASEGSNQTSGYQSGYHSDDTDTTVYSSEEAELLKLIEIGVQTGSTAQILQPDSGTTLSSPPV
- Test name: biochemical
pIC50: −log10 of the molar value.
Assay metric: pIC50

Would you please look over these solved cases?
Mol	pIC50
COc1cc2nccc(Oc3ccc(NC(=O)[C@@H]4CCCN4Cc4ccccc4)cc3)c2cc1OC	5.30 to 6.30
CCN(CC)CCCOc1cc2ncnc(Oc3ccc(NC(=O)C4(C(=O)Nc5ccc(F)cc5)CC4)cc3F)c2cc1OC	> 7.30
COc1cc2nccc(Oc3ccc(NC(=O)C4(C(=O)NCc5ccc(F)cc5)CC4)cc3)c2cc1OC	6.30 to 7.30
COc1cc2nccc(Oc3ncc(NC(=O)CC(=O)Nc4ccccc4)cc3Cl)c2cc1OC	5.30 to 6.30
COc1cc2c(Oc3ccc(NC(=O)C4(C(=O)Nc5ccc(F)cc5)CC4)cc3F)ncnc2cc1OCC1CCN(C)CC1	> 7.30
COc1cc2nccc(Oc3ccc(NC(=O)[C@@H](NCc4ccccc4)C(C)C)cc3)c2cc1OC	5.30 to 6.30

Below: the item to evaluate.
Query :: Form field: reported pIC50 of COc1cc2c(Oc3ccc(NC(=O)C(=O)NCC4CC4)cc3F)ccnc2cc1OCC1CCNCC1
Result :: 6.30 to 7.30

* * *

- System tested: c-Met (baculovirus expressed human c-Met kinase domain P948-S1343) (Homo sapiens, UniProt P08581)
- Construct: human c-Met kinase domain P948-S1343; host or cells: baculovirus expression
- Sequence (P08581 1011-1343 limits assumed): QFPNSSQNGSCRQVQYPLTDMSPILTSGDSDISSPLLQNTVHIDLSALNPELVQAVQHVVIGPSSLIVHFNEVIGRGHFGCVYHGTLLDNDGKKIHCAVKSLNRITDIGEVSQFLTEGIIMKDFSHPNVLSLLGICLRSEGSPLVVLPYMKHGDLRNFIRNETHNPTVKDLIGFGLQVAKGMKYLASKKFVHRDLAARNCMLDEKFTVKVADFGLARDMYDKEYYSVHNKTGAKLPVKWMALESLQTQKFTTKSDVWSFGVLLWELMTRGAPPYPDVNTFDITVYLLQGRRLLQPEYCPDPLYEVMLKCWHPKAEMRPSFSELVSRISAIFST
- Test name: c-Met Luciferase-Coupled Chemiluminescent Kinase assay (LCCA);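 also: kinase activity read as percent ATP left after reaction, by luciferase-luciferin chemiluminescence, with 1 µM ATP and 1 µM poly-EY substrate, 2 h at ambient temperature, 10-point dose-response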
- Format: biochemical
pIC50: −log10 of the molar value.
Assay metric: pIC50

Compound	Result
COc1cc2c(Oc3ccc(NC(=O)[C@@]4(C(=O)Nc5ccc(F)cc5)C[C@H]4C)cc3F)ccnc2cc1OCCCN1CCOCC1 [Example 342]	> 7.30
COc1cc2nccc(Oc3ncc(NC(=O)C(C)(C)C(=O)Nc4ccc(F)cc4)cc3Cl)c2cc1OC [Example 292]	6.30 to 7.30
COc1cc2c(Oc3ccc(NC(=O)C4(C(=O)Nc5ccc(F)cc5)CC4)cc3F)ncnc2cc1OCCCN1CCOCC1 [Example 315]	> 7.30
O=C(Nc1ccc(F)cc1)C1(C(=O)Nc2ccc(Oc3ccnc4cc(Cl)ccc34)c(F)c2)CC1 [Example 303]	> 7.30
CCO/N=C(\C)C(=O)Nc1ccc(Oc2ccnc3cc(OC)c(OC)cc23)cc1 [Example 109]	6.30 to 7.30

Query :: I would be grateful if you could share the reported pIC50 for O=C(Nc1ccc(F)cc1)C1(C(=O)Nc2ccc(Oc3ccnc4cc(Cl)ccc34)cc2)CC1 [Example 308] .
Result :: > 7.30

Query :: What about COc1cc2nccc(Oc3ccc(NC(=O)C4(C(=O)Nc5ccccc5CN5CCOCC5)CC4)cc3)c2cc1OC [Example 397] ?
Result :: 6.30 to 7.30

Query :: Param item: COc1cc2nccc(Oc3ccc(NC(=O)CC(=O)Nc4ccc(F)cc4)cc3)c2cc1OC [Example 288]
Result :: > 7.30

* * *

- System tested: Flt-3 (baculovirus expressed human Flt-3 kinase domain R571-S993) (Homo sapiens, UniProt P36888);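 also: Luciferase-coupled chemiluminescent kinase assay, activity read as percent ATP left after a 3 h reaction at room temperature, ATP near KM, 10-point dose-response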
- Construct: human Flt-3 kinase domain R571-S993; host or cells: baculovirus expression
- Sequence (P36888 571-993): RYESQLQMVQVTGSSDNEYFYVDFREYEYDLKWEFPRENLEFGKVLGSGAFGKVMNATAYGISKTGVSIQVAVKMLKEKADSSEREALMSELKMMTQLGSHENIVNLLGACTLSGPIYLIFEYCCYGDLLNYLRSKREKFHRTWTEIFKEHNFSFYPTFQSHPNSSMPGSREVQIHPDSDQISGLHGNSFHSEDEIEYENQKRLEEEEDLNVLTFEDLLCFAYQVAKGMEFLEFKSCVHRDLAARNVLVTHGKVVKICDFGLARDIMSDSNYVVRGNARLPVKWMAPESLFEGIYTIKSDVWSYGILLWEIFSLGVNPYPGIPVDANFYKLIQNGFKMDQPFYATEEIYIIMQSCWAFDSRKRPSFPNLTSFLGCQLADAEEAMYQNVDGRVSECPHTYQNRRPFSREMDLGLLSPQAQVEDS
- Test name: biochemical
- Test context: read-out: flt3 IC50
pIC50: −log10 of the molar value.
Assay metric: pIC50

Molecule	Result
COc1cc2c(Oc3ncc(NC(=O)C4(C(=O)Nc5ccc(F)cc5)CC4)cc3Cl)ccnc2cc1OCc1ccccc1	6.30 to 7.30
COc1cc2nccc(Oc3ccc(NC(=O)C4(C(=O)Nc5ccc(F)cc5)CNC4)cc3)c2cc1OC	5.30 to 6.30
CCN(CC)CCCOc1cc2ncnc(Oc3ccc(NC(=O)C4(C(=O)Nc5ccc(F)cc5)CC4(C)C)cc3F)c2cc1OC (stereo not shown)	5.30 to 6.30
COc1cc2c(Oc3ccc(NC(=O)C4(C(=O)Nc5ccc(F)cc5)CCC4)cc3F)ccnc2cc1OCCCN1CCCCC1	6.30 to 7.30
CCN(CC)CCCOc1cc2nccc(Oc3ccc(NC(=O)C4(C(=O)Nc5ccc(F)cc5)CCC4)cc3F)c2cc1OC	5.30 to 6.30
COc1cc2c(Oc3ccc(NC(=O)C4(C(=O)Nc5ccc(F)cc5)CCC4)cc3F)ncnc2cc1OCCCN1CCNCC1	6.30 to 7.30

Pending molecule:
Query :: What value of pIC50 has been recorded for this entry: COc1cc2c(Oc3ccc(NC(=O)[C@]4(C(=O)Nc5ccc(F)cc5)C[C@H]4C)cc3F)ncnc2cc1OCCCN1CCNCC1
Result :: > 7.30

* * *

- System tested: Flt-4 (baculovirus expressed human Flt-4 kinase domain D725-R1298) (Homo sapiens)
- Construct: human Flt-4 kinase domain D725-R1298; host or cells: baculovirus expression
- Test name: flt-4 Alphascreen Tyrosine Kinase assay
- Type: biochemical
- Test context: read-out: flt4 IC50
Assay metric: IC50

Query :: Bench note: what IC50 did COc1cc2c(Oc3ccc(NC(=O)C4(C(=O)Nc5ccc(F)cc5)CC4)cc3F)ncnc2cc1OCCCN1CCOCC1 show?
Result :: < 50 nM

* * *

- System tested: Flt-4 (baculovirus expressed human Flt-4 kinase domain D725-R1298) (Homo sapiens, UniProt P35916)
- Construct: human Flt-4 kinase domain D725-R1298; host or cells: baculovirus expression
- Sequence (P35916 725-1298 isoform P35916-1): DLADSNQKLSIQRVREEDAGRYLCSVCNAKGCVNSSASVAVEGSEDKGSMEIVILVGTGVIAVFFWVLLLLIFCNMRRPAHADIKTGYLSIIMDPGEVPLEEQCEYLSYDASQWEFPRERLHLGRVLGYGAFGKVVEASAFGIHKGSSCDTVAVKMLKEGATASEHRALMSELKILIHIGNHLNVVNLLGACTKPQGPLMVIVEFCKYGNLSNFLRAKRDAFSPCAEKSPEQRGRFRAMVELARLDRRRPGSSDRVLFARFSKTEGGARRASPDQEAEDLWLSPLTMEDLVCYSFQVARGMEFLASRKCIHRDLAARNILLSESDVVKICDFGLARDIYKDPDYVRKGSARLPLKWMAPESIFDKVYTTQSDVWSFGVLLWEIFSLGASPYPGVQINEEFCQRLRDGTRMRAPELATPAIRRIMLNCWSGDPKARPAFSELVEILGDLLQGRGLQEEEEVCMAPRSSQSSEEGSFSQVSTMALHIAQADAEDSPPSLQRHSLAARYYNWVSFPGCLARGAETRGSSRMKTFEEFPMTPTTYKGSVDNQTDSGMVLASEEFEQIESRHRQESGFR
- Test name: flt-4 Alphascreen Tyrosine Kinase assay;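 also: AlphaScreen chemiluminescence read-out of biotinylated poly(Glu,Tyr) 4:1 phosphorylation via streptavidin donor and PY100 anti-phosphotyrosine acceptor beads, ATP near KM, 1 hr kinase reaction, 10-point dose-response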
- Type: biochemical
- Test context: read-out: flt4 IC50
Assay metric: IC50

Answered examples (4):
Molecule	IC50
O=C(Nc1ccc(F)cc1)C1(C(=O)Nc2ccc(Oc3ccnc4cc(Cl)ccc34)cc2)CC1 [Example 308]	50 to 500 nM
COc1cc2ncnc(Oc3ccc(NC(=O)C4(C(=O)Nc5ccc(F)cc5)CC4)cc3F)c2cc1OCC1CCN(C)CC1 [Example 325]	< 50 nM
COc1cc2nccc(Oc3cc(F)c(NC(=O)C4(C(=O)Nc5ccc(F)cc5)CC4)cc3F)c2cc1OC [Example 324]	< 50 nM
CCNC(=O)C(=O)Nc1ccc(Oc2ccnc3cc(OCC4CCNCC4)c(OC)cc23)c(F)c1 [Example 293]	50 to 500 nM

Query :: Report IC50 for COc1cc2c(Oc3ccc(NC(=O)C4(C(=O)Nc5ccc(F)cc5)CC4)cc3F)ccnc2cc1OCCCN1CCNCC1 [Example 332] please.
Result :: < 50 nM

Query :: Now give it for COc1cc2ncnc(Oc3ccc(NC(=O)C4(C(=O)Nc5ccc(F)cc5)CC4)cc3F)c2cc1OC [Example 311] too.
Result :: < 50 nM

Query :: Lookup COc1cc2c(Oc3ccc(NC(=O)C(=O)NCCc4ccccc4)cc3F)ncnc2cc1OCC1C[C@H]2CNC[C@H]2C1 (stereo partly shown) [Example 285]
Result :: < 50 nM

* * *

- System tested: UniProtKB P10721
- Sequence (P10721 26-976): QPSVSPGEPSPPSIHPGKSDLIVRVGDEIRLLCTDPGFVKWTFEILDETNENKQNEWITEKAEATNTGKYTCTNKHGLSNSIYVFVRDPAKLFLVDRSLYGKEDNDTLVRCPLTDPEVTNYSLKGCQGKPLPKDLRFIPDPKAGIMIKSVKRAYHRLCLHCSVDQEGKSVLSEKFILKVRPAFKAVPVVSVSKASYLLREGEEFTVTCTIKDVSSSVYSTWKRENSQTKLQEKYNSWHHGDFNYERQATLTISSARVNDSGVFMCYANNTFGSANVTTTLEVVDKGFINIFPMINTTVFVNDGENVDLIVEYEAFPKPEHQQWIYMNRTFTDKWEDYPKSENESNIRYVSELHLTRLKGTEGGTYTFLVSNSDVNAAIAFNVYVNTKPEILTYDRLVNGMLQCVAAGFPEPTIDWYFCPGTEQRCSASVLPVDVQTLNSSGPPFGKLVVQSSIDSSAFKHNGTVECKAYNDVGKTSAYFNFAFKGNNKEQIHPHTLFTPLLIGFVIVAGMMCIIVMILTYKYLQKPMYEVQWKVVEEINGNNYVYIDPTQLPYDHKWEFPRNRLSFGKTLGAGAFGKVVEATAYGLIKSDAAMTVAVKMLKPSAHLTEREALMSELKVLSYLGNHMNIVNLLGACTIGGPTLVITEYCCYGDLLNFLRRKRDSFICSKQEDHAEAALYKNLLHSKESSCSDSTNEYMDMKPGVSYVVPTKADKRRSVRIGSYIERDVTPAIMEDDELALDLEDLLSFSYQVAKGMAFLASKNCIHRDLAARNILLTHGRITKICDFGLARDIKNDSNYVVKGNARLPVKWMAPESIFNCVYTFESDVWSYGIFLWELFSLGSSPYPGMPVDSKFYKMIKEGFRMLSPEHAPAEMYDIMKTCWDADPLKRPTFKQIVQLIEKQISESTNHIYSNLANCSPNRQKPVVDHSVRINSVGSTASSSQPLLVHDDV
- Test name: c-Kit AlphaScreen kinase assay;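 also: c-Kit kinase phosphorylating biotinylated poly(Glu,Tyr), ATP near its KM, 1 h reaction at ambient temperature, AlphaScreen chemiluminescence with streptavidin donor and anti-phosphotyrosine acceptor beads, 10-point inhibitor titration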
- Assay type: biochemical
pIC50: −log10 of the molar value.
List of pIC50 values.

Illustrative cases are given below, each with its answer.
Compound	System tested	Assay metric	Result
O=C(Nc1ccc(F)cc1)C1(C(=O)Nc2ccc(Oc3ccnc4cc(Cl)ccc34)c(F)c2)CC1	UniProtKB P10721	pIC50	5.30 to 6.30
COc1cc2nccc(Oc3cc(F)c(NC(=O)C4(C(=O)Nc5ccc(F)cc5)CC4)cc3F)c2cc1OC	UniProtKB P10721	pIC50	> 7.30
COc1cc2c(Oc3ccc(NC(=O)C4(C(=O)Nc5ccc(F)cc5)CC4)c(C)c3)ccnc2cc1OCCCN1CCOCC1	UniProtKB P10721	pIC50	> 7.30
COc1cc2nccc(Oc3ccc(NC(=O)C(=O)NCc4ccccc4)cc3F)c2cc1OC	UniProtKB P10721	pIC50	6.30 to 7.30
COc1cc2ncnc(Oc3ccc(NC(=O)C4(C(=O)Nc5ccc(F)cc5)CC4)cc3F)c2cc1OCC1CCN(C)CC1	UniProtKB P10721	pIC50	6.30 to 7.30

Query :: Query: pIC50; subject: CCN(CC)CCOc1cc2nccc(Oc3ccc(NC(=O)C4(C(=O)Nc5ccc(F)cc5)CCC4)cc3F)c2cc1OC
Result :: > 7.30

Query :: Also check COc1cc2nccc(Oc3ncc(NC(=O)CC(=O)Nc4ccccc4)cc3Cl)c2cc1OC
Result :: 6.30 to 7.30

Query :: Same for COc1cc2nccc(Oc3ncc(NC(=O)C4(C(=O)NCc5ccccc5)CC4)cc3Cl)c2cc1OC
Result :: 6.30 to 7.30

Query :: Could you do the same for COc1cc2c(Oc3ccc(NC(=O)C(=O)NCCc4ccc(N)cc4)cc3F)ccnc2cc1OCC1CCNCC1 , please?
Result :: 6.30 to 7.30

Query :: Another compound to check: CCCCNC(=O)C(=O)Nc1ccc(Oc2ccnc3cc(OCC4CCNCC4)c(OC)cc23)c(F)c1
Result :: 6.30 to 7.30

Query :: Another compound to check: COc1cc2c(Oc3ccc(NC(=O)C(=O)N[C@@H](Cc4ccccc4)C(=O)N4CCCC4)cc3F)ccnc2cc1OCC1CCNCC1
Result :: 6.30 to 7.30

Query :: Okay, and COc1cc2c(Oc3ccc(NC(=O)C(=O)NC(C)c4ccc(F)cc4)cc3F)ccnc2cc1OCC1CCNCC1 (centres unmarked) ?
Result :: 6.30 to 7.30

Query :: Please answer likewise for COc1cc2nccc(Oc3ccc(NC(=O)C4(C(=O)Nc5ccc(F)cc5)CC4)cc3F)c2cc1O
Result :: > 7.30

Query :: Then this compound: COc1cc2nccc(Oc3c(F)cc(NC(=O)C4(C(=O)Nc5ccc(F)cc5)CC4)c(F)c3F)c2cc1OC
Result :: 6.30 to 7.30

Query :: What do you have for COCCNC(=O)C(=O)Nc1ccc(Oc2ccnc3cc(OCC4CCNCC4)c(OC)cc23)c(F)c1 ?
Result :: 6.30 to 7.30

Query :: Try COc1cc2c(Oc3ccc(NC(=O)C4(C(=O)Nc5ccc(F)cc5)CC4)cc3)ccnc2cc1OCCCN1CCOCC1 next.
Result :: > 7.30

Query :: Would you kindly repeat that for COc1cc2c(Oc3cc(C)c(NC(=O)C4(C(=O)Nc5ccc(F)cc5)CC4)cc3F)ccnc2cc1OCCCN1CCOCC1 ?
Result :: 6.30 to 7.30

Query :: Let us now turn to COc1cc2c(Oc3ccc(NC(=O)C(=O)N4CCC(Cc5ccccc5)CC4)cc3F)ccnc2cc1OCC1CCNCC1
Result :: 6.30 to 7.30

Query :: And COc1cc2c(Oc3ccc(NC(=O)C4(C(=O)Nc5ccc(F)cc5)CCC4)cc3F)ccnc2cc1OCCCN1CCCCC1 ?
Result :: > 7.30

Query :: Entry to check: CCN(CC)CCOc1cc2nccc(Oc3ccc(NC(=O)C4(C(=O)Nc5ccc(F)cc5)CC4)cc3F)c2cc1OC
Result :: > 7.30

Query :: Here is the next compound: CCN(CC)CCCOc1cc2nccc(Oc3ccc(NC(=O)C4(C(=O)Nc5ccc(F)cc5)CC4)cc3F)c2cc1OC
Result :: > 7.30

Query :: And what about the compound CCNC(=O)C(=O)Nc1ccc(Oc2ccnc3cc(OCC4CCNCC4)c(OC)cc23)c(F)c1 ?
Result :: 6.30 to 7.30
